# System: HSC-2 (Oral Cavity Carcinoma)
# ASSAY_SUMMARY: Bliss excess, mean over the matrix (fraction); higher = more synergy
Recorded Bliss excess values for a group of compounds are listed next.
REPORTED_METRIC: Bliss excess

- COMPOUND: "C[C@@H]1COCCN1c1cc(C2([S@](C)(=N)=O)CC2)nc(-c2ccnc3[nH]ccc23)n1 [AZD6738] + Nc1ccn([C@@H]2O[C@H](CO)[C@@H](O)C2(F)F)c(=O)n1 [Gemcitabine] (first compound max 10 µM, 7x7, partner max 0.3 µM)"
  TESTED_TARGET: "HSC-2 (Oral Cavity Carcinoma)"
  REPORTED_METRIC: "Bliss excess"
  RESULT: 0.0604
- COMPOUND: "COc1cccc(OCCCN)c1-c1cc(Nc2cnc(C#N)cn2)n[nH]1 [Prexasertib] + C=CCn1c(=O)c2cnc(Nc3ccc(N4CCN(C)CC4)cc3)nc2n1-c1cccc(C(C)(C)O)n1 [AZD1775] (first compound max 1 µM, partner max 1 µM)"
  TESTED_TARGET: "HSC-2 (Oral Cavity Carcinoma)"
  REPORTED_METRIC: "Bliss excess"
  RESULT: 0.178

###

# System: LC4-1 (B-Lymphoblastic Leukemia)
# ASSAY_SUMMARY: Bliss excess, mean over the matrix (fraction); higher = more synergy
REPORTED_METRIC: Bliss excess

- MOLECULE: "C[C@@H]1COCCN1c1cc(C2([S@](C)(=N)=O)CC2)nc(-c2ccnc3[nH]ccc23)n1 [AZD6738] + O=C(c1cc(Cc2n[nH]c(=O)c3ccccc23)ccc1F)N1CCN(C(=O)C2CC2)CC1 [Olaparib] (first compound max 10 µM, 7x7, partner max 10 µM)"
  RESULT: -0.009
- MOLECULE: "CC(=O)c1c(C)c2cnc(Nc3ccc(N4CCNCC4)cn3)nc2n(C2CCCC2)c1=O [Palbociclib] + CC1(C)CCC(CN2CCN(c3ccc(C(=O)NS(=O)(=O)c4ccc(NCC5CCOCC5)c([N+](=O)[O-])c4)c(Oc4cnc5[nH]ccc5c4)c3)CC2)=C(c2ccc(Cl)cc2)C1 [Venetoclax] (first compound max 10 µM, 7x7, partner max 1 µM)"
  RESULT: -0.0396

###

# Tested on: EW-18 (Ewing's Sarcoma)
# ASSAY_SUMMARY: combination Emax (second highest fraction inhibited in the dose matrix, 72 h); higher = more inhibition; extreme values may be limits of the assay
Recorded combination Emax values for a group of compounds are listed next.

- COMPOUND: "NC1(C(=O)N[C@@H](CCO)c2ccc(Cl)cc2)CCN(c2ncnc3[nH]ccc23)CC1 [Capivasertib] + C[C@@H]1COCCN1C2=NC(=NC(=C2)C3(CC3)[S@](=N)(=O)C)C4=C5C=CNC5=NC=C4 [AZD6738] (first compound max 10 µM, 7x7, partner max 10 µM)"
  combination Emax: 0.811
- COMPOUND: "COc1nnc2ccc(N3CCC(c4ccc(OCCN5CCN(C)C(=O)[C@H]5C)cc4)CC3)nn12 [AZD5153] + Cc1c2c(nn1C)CSCc1cc(n(C)n1)CSc1cc(c3ccccc3c1)OCCCc1c(C(=O)O)n(C)c3c-2c(Cl)ccc13 [AZD5991] (first compound max 1 µM, 7x7, partner max 1 µM)"
  combination Emax: 0.938
- COMPOUND: "Cc1nc(Nc2ncc(C(=O)Nc3c(C)cccc3Cl)s2)cc(N2CCN(CCO)CC2)n1 [Dasatinib] + CC(=O)Nc1cccc(-n2c(=O)n(C3CC3)c(=O)c3c(Nc4ccc(I)cc4F)n(C)c(=O)c(C)c32)c1 [Trametinib] (first compound max 2 µM, 7x7, partner max 1 µM)"
  combination Emax: 0.13
- COMPOUND: "CN(CCO)CC[C@H](CSc1ccccc1)Nc1ccc(S(=O)(=O)NC(=O)c2ccc(N3CCC([C@@H](O)c4ccccc4-c4ccc(Cl)cc4)CC3)cc2)cc1S(=O)(=O)C(F)(F)F [AZD4320] + CCN(CCO)CCCOc1ccc2c(Nc3cc(CC(=O)Nc4cccc(F)c4)[nH]n3)ncnc2c1 [AZD2811] (first compound max 1 µM, 7x7, partner max 1 µM)"
  combination Emax: 0.888
- COMPOUND: "CC1(C)CCC(CN2CCN(c3ccc(C(=O)NS(=O)(=O)c4ccc(NCC5CCOCC5)c([N+](=O)[O-])c4)c(Oc4cnc5[nH]ccc5c4)c3)CC2)=C(c2ccc(Cl)cc2)C1 [Venetoclax] + CCN(CCO)CCCOc1ccc2c(Nc3cc(CC(=O)Nc4cccc(F)c4)[nH]n3)ncnc2c1 [AZD2811] (first compound max 1 µM, 7x7, partner max 1 µM)"
  combination Emax: 0.707
- COMPOUND: "Cc1c2c(nn1C)CSCc1cc(n(C)n1)CSc1cc(c3ccccc3c1)OCCCc1c(C(=O)O)n(C)c3c-2c(Cl)ccc13 [AZD5991] + Cn1cnc2c(F)c(Nc3ccc(Br)cc3Cl)c(C(=O)NOCCO)cc21 [Selumetinib] (first compound max 1 µM, 7x7, partner max 3 µM)"
  combination Emax: 0.927

###

# System: EW-3 (Ewing's Sarcoma)
# ASSAY_SUMMARY: Bliss excess, mean over the matrix (fraction); higher = more synergy
Recorded Bliss excess values for a group of compounds are listed next.
REPORTED_METRIC: Bliss excess

- COMPOUND: "C[C@@H](c1ccc2nccn2c1)n1nnc2ncc(-c3cnn(C)c3)nc21 [Savolitinib] + Cc1c2c(nn1C)CSCc1cc(n(C)n1)CSc1cc(c3ccccc3c1)OCCCc1c(C(=O)O)n(C)c3c-2c(Cl)ccc13 [AZD5991] (first compound max 1 µM, 7x7, partner max 1 µM)"
  TESTED_TARGET: "EW-3 (Ewing's Sarcoma)"
  RESULT: -0.0011
- COMPOUND: "NC1(C(=O)N[C@@H](CCO)c2ccc(Cl)cc2)CCN(c2ncnc3[nH]ccc23)CC1 [Capivasertib] + COc1nnc2ccc(N3CCC(c4ccc(OCCN5CCN(C)C(=O)[C@H]5C)cc4)CC3)nn12 [AZD5153] (first compound max 10 µM, 7x7, partner max 1 µM)"
  TESTED_TARGET: "EW-3 (Ewing's Sarcoma)"
  RESULT: 0.0429

###

Recorded Bliss excess values for a group of molecules are listed next.
# Test system: H-EMC-SS (Chondrosarcoma)
# ASSAY_SUMMARY: Bliss excess, mean over the matrix (fraction); higher = more synergy

- MOLECULE: "COc1cccc2c1C(=O)c1c(O)c3c(c(O)c1C2=O)C[C@@](O)(C(=O)CO)C[C@@H]3O[C@H]1C[C@H](N)[C@H](O)[C@H](C)O1 [Doxorubicin] + Cc1cc2ncnn2cc1Nc1ncc2c(n1)n(C1CCOCC1)c(=O)n2C [AZD7648] (first compound max 1 µM, 7x7, partner max 10 µM)"
  Bliss excess: -0.0179
- MOLECULE: "Cc1c2c(nn1C)CSCc1cc(n(C)n1)CSc1cc(c3ccccc3c1)OCCCc1c(C(=O)O)n(C)c3c-2c(Cl)ccc13 [AZD5991] + Nc1ccn([C@@H]2O[C@H](CO)[C@@H](O)C2(F)F)c(=O)n1 [Gemcitabine] (first compound max 1 µM, 7x7, partner max 0.3 µM)"
  Bliss excess: -0.005
- MOLECULE: "NC1(C(=O)N[C@@H](CCO)c2ccc(Cl)cc2)CCN(c2ncnc3[nH]ccc23)CC1 [Capivasertib] + CCN(CCO)CCCOc1ccc2c(Nc3cc(CC(=O)Nc4cccc(F)c4)[nH]n3)ncnc2c1 [AZD2811] (first compound max 10 µM, 7x7, partner max 1 µM)"
  Bliss excess: -0.0105
- MOLECULE: "C[C@@H](Oc1cc(-c2cnn(C3CCNCC3)c2)cnc1N)c1c(Cl)ccc(F)c1Cl [Crizotinib] + Cn1cnc2c(F)c(Nc3ccc(Br)cc3Cl)c(C(=O)NOCCO)cc21 [Selumetinib] (first compound max 10 µM, 7x7, partner max 10 µM)"
  Bliss excess: -0.0166

###

Recorded combination Emax values for a group of compounds are listed next.
# Test system: OCUB-M (Breast Carcinoma)
# ASSAY_SUMMARY: combination Emax (second highest fraction inhibited in the dose matrix, 72 h); higher = more inhibition; extreme values may be limits of the assay

- COMPOUND: "CC1(C)CCC(CN2CCN(c3ccc(C(=O)NS(=O)(=O)c4ccc(NCC5CCOCC5)c([N+](=O)[O-])c4)c(Oc4cnc5[nH]ccc5c4)c3)CC2)=C(c2ccc(Cl)cc2)C1 [Venetoclax] + C[C@@H](Nc1cc(F)cc(F)c1)c1cc(C(=O)N(C)C)cc2c(=O)cc(N3CCOCC3)oc12 [AZD8186] (first compound max 1 µM, 7x7, partner max 3 µM)"
  TESTED_TARGET: "OCUB-M (Breast Carcinoma)"
  combination Emax: 0.276
- COMPOUND: "CC(=O)c1c(C)c2cnc(Nc3ccc(N4CCNCC4)cn3)nc2n(C2CCCC2)c1=O [Palbociclib] + Cn1cnc2c(F)c(Nc3ccc(Br)cc3Cl)c(C(=O)NOCCO)cc21 [Selumetinib] (first compound max 10 µM, 7x7, partner max 10 µM)"
  TESTED_TARGET: "OCUB-M (Breast Carcinoma)"
  combination Emax: 0.0542
- COMPOUND: "CN(CCO)CC[C@H](CSc1ccccc1)Nc1ccc(S(=O)(=O)NC(=O)c2ccc(N3CCC([C@@H](O)c4ccccc4-c4ccc(Cl)cc4)CC3)cc2)cc1S(=O)(=O)C(F)(F)F [AZD4320] + C=CCn1c(=O)c2cnc(Nc3ccc(N4CCN(C)CC4)cc3)nc2n1-c1cccc(C(C)(C)O)n1 [AZD1775] (first compound max 1 µM, partner max 1 µM)"
  TESTED_TARGET: "OCUB-M (Breast Carcinoma)"
  combination Emax: 0.487
- COMPOUND: "CC(=O)Nc1cccc(-n2c(=O)n(C3CC3)c(=O)c3c(Nc4ccc(I)cc4F)n(C)c(=O)c(C)c32)c1 [Trametinib] + Cc1nc(-c2cn3c(n2)-c2ccc(-c4cnn(C(C)(C)C(N)=O)c4)cc2OCC3)n(C(C)C)n1 [Taselisib] (first compound max 1 µM, 7x7, partner max 10 µM)"
  TESTED_TARGET: "OCUB-M (Breast Carcinoma)"
  combination Emax: 1
- COMPOUND: "CCc1c2c(nc3ccc(O)cc13)-c1cc3c(c(=O)n1C2)COC(=O)[C@]3(O)CC [SN-38] + O=C(c1cc(Cc2n[nH]c(=O)c3ccccc23)ccc1F)N1CCN(C(=O)C2CC2)CC1 [Olaparib] (first compound max 0.3 µM, 7x7, partner max 10 µM)"
  TESTED_TARGET: "OCUB-M (Breast Carcinoma)"
  combination Emax: 0.922
